# target: CDK12/Cyclin K (Homo sapiens)
# Sequence (Q9NYV4 1-1481 isoform Q9NYV4-2): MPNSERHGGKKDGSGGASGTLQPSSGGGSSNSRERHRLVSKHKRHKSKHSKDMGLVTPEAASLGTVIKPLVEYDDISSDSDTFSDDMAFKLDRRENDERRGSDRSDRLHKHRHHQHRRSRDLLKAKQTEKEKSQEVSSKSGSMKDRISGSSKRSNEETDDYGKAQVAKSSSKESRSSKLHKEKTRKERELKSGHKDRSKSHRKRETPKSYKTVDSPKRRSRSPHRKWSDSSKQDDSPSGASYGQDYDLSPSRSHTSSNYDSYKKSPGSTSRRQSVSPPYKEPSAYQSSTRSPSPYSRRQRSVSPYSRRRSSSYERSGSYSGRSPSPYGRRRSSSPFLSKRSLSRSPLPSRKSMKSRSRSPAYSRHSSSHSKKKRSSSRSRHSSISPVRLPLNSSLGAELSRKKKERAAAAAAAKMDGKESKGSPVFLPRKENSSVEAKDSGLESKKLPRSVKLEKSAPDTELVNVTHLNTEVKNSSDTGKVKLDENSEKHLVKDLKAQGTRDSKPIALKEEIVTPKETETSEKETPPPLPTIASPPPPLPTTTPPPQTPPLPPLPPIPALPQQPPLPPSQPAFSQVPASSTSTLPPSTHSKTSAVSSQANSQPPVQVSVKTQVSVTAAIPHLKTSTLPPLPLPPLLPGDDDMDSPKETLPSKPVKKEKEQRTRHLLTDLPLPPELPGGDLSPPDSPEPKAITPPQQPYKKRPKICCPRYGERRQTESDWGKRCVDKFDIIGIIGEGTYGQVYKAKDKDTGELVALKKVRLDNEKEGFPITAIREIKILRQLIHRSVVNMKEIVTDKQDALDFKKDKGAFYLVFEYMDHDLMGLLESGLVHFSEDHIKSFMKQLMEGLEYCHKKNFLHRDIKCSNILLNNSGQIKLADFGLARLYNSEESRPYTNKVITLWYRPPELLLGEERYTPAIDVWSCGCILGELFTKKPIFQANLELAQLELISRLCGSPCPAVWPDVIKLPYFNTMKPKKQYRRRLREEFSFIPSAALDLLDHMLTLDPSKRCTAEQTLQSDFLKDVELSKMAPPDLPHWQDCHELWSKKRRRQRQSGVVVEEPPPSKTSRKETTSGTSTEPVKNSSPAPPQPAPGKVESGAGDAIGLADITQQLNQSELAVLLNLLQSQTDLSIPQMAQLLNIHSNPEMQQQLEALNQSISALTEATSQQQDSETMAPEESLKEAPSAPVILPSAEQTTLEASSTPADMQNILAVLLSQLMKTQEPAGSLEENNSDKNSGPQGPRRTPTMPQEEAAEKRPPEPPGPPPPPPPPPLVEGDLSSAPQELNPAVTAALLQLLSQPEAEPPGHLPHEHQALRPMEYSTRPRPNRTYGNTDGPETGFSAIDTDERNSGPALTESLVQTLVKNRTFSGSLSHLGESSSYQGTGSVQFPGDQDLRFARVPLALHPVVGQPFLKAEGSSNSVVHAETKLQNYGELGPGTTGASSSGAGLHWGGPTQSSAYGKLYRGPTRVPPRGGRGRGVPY
# Sequence (O75909 whole entry partner): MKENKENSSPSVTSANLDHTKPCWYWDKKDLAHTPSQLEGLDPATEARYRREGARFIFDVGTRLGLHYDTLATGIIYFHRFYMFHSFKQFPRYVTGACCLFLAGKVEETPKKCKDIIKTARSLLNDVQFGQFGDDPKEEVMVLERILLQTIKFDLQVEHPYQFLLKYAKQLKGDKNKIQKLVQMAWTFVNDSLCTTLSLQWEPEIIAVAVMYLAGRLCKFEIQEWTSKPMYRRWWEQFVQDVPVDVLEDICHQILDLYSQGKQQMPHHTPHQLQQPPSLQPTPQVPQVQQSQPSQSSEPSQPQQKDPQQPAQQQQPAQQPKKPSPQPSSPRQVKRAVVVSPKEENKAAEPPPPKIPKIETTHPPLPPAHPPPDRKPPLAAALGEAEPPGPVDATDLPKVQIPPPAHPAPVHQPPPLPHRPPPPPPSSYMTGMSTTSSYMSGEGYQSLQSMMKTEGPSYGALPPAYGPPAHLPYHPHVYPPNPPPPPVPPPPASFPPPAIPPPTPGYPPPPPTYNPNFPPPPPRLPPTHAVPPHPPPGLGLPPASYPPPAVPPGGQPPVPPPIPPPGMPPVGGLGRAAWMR
# test: NanoBRET live-cell target engagement, CDK12-NanoLuc/Cyclin K in HEK-293
# Type: binding
# reported.conditions: CDK12/K; read-out: IC50 (nM) Replicate 1
outcome.measure: IC50 (nM)
Write the value in nM as a bare number.

Req: If you can, please state the reported IC50 value of CC(C)c1cnn2c(NCc3ccccc3)cc(N[C@@H](CO)[C@H](O)CO)nc12 .
Resp: 187

* * *

# target: CDK14/Cyclin Y (Homo sapiens)
# Sequence (O94921 whole entry): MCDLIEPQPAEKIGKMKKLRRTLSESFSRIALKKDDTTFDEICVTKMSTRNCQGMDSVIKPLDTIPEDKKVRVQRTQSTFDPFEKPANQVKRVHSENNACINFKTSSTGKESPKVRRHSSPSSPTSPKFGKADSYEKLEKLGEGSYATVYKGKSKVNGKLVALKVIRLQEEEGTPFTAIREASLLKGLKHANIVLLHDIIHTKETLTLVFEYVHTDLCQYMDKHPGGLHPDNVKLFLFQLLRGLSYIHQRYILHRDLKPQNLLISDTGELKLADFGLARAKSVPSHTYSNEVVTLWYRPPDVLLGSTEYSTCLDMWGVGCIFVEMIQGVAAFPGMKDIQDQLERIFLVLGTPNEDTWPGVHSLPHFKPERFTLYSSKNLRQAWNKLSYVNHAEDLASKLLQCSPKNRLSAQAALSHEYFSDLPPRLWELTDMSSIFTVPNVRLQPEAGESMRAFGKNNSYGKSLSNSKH
# Sequence (Q8ND76 whole entry partner): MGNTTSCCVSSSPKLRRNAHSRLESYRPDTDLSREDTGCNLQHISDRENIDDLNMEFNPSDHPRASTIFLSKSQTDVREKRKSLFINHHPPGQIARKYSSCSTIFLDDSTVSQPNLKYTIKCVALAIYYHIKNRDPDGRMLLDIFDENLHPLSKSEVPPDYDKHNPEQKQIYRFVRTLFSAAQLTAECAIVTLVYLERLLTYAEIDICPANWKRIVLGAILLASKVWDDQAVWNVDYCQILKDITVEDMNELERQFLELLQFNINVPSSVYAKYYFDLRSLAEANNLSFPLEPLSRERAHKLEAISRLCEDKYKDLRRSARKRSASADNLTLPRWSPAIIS
# test: NanoBRET live-cell target engagement, CDK14-NanoLuc/Cyclin Y in HEK-293
# Type: binding
# reported.conditions: CDK14/Y; 10µM; average of replicates; read-out: Inhibition at 10µM (%) Average
outcome.measure: inhibition at 10 µM (%)
Write the value in % as a bare number.

These recorded examples may help you get a feel for the data.
Req: Any idea what inhibition at 10 µM came out for COc1cc(F)ccc1-c1cc(Nc2cc(CS(C)(=N)=O)ccn2)ncc1F (stereo not shown) on CDK14/Cyclin Y (Homo sapiens)?
Resp: 19.5

Req: Any idea what inhibition at 10 µM came out for CCCCOc1c(C(=O)c2c(F)cc(C)cc2F)c[nH]c2nncc1-2 on CDK14/Cyclin Y (Homo sapiens)?
Resp: 43.5

Req: Any idea what inhibition at 10 µM came out for COc1cc(F)ccc1-c1ncnc(Nc2cccc(C[S@](C)(=N)=O)c2)n1 on CDK14/Cyclin Y (Homo sapiens)?
Resp: 3

New cases:
Req: Any idea what inhibition at 10 µM came out for Cc1ncc(-c2ccnc(Nc3ccc(S(C)(=O)=O)cc3)n2)n1C(C)C on CDK14/Cyclin Y (Homo sapiens)?
Resp: 70.3

* * *

# target: CDK15/Cyclin Y (Homo sapiens)
# Sequence (Q96Q40 whole entry): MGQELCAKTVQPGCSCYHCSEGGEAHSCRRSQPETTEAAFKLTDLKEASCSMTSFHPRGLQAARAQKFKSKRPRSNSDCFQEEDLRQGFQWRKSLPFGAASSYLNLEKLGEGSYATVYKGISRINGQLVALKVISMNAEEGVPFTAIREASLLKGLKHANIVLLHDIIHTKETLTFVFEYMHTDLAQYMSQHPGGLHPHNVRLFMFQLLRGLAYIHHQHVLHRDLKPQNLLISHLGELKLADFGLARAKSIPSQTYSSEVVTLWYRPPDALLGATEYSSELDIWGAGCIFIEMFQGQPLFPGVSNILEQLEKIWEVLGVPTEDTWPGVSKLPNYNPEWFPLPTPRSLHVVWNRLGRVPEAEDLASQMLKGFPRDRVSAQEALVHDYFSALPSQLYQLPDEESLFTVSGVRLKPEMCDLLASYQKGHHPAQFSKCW
# Sequence (Q8ND76 whole entry partner): as the sequence (Q8ND76 whole entry partner) above
# test: NanoBRET live-cell target engagement, NanoLuc-CDK15/Cyclin Y in HEK-293
# Assay type: binding
# reported.conditions: CDK15/Y; average
Inhibition at 10µM (%) values for the compounds below.
Write the value in % as a bare number.

These recorded examples may help you get a feel for the data.
Req: If you can, please state the reported Inhibition at 10µM (%) value of CN1CCC(c2c(O)cc(O)c3c(=O)cc(-c4ccccc4Cl)oc23)C1CO (stereo not drawn) .
Resp: 28.5

Req: If you can, please state the reported Inhibition at 10µM (%) value of CC(C)c1c2cc(-c3ccnc(N[C@H]4CC[C@H](NC5CCOCC5)CC4)n3)ccc2nn1C .
Resp: 93.6

Req: If you can, please state the reported Inhibition at 10µM (%) value of CCn1cnc2c(Nc3cccc(Cl)c3)nc(N[C@@H]3CCCC[C@@H]3N)nc21 [CGP74514A] .
Resp: 85.2

New cases:
Req: If you can, please state the reported Inhibition at 10µM (%) value of CNc1nc(C)c(-c2nc(Nc3cccc(S(N)(=O)=O)c3)ncc2F)s1 .
Resp: 92.4

Req: If you can, please state the reported Inhibition at 10µM (%) value of CS(=O)(=O)N1CCC(NC(=O)c2[nH]ncc2NC(=O)c2c(Cl)cccc2Cl)CC1 .
Resp: 92.4

Req: If you can, please state the reported Inhibition at 10µM (%) value of CC(C)c1cnn2c(NCc3ccccc3-n3cccn3)nc(OC3CCCNC3)nc12 (stereo not drawn) .
Resp: 95.3

* * *

# target: CDK2/Cyclin E1 (Homo sapiens)
# test: NanoBRET live-cell target engagement, CDK2-NanoLuc/Cyclin E1 in HEK-293
# Assay type: binding
# reported.conditions: CDK2/E1; experiment 2
Inhibition at 10µM (%) values for the compounds below.
Write the value in % as a bare number.

These recorded examples may help you get a feel for the data.
Req: If you can, please state the reported Inhibition at 10µM (%) value of CC(C)c1cnn2c(NCc3ccccc3-n3cccn3)nc(OC3CCCNC3)nc12 (stereo not shown) .
Resp: 91.3

Req: If you can, please state the reported Inhibition at 10µM (%) value of CC(C)c1c2cc(-c3ccnc(N[C@H]4CC[C@H](NC5CCOCC5)CC4)n3)ccc2nn1C .
Resp: 86.7

Req: If you can, please state the reported Inhibition at 10µM (%) value of CCn1cnc2c(Nc3cccc(Cl)c3)nc(N[C@@H]3CCCC[C@@H]3N)nc21 [CGP74514A] .
Resp: 95.2

Next:
Req: If you can, please state the reported Inhibition at 10µM (%) value of CN1CCC(c2c(O)cc(O)c3c(=O)cc(-c4ccccc4Cl)oc23)C1CO (stereo not shown) .
Resp: 28.7

* * *

# target: CDK6/Cyclin D1 (Homo sapiens)
# Sequence (Q00534 whole entry): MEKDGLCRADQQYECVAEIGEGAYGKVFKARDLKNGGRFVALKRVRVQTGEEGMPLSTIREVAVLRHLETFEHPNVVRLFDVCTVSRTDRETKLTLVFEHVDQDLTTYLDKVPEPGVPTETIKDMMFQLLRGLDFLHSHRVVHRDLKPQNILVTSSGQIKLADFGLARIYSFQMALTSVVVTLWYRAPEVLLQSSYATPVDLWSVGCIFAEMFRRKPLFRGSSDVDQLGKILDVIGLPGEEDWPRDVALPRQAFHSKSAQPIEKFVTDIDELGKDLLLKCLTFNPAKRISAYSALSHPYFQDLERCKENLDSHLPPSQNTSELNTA
# Sequence (P24385 whole entry partner): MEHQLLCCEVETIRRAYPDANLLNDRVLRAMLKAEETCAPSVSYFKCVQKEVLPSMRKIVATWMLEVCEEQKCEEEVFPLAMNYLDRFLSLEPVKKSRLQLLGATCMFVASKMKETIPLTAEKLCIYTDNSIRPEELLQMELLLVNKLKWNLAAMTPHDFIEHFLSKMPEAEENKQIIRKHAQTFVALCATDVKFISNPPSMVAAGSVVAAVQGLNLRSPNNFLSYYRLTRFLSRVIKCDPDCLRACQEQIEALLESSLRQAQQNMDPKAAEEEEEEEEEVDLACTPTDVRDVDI
# test: NanoBRET live-cell target engagement, NanoLuc-CDK6/Cyclin D1 in HEK-293
# Format: binding
# reported.conditions: CDK6/D1; average
outcome.measure: Inhibition at 10µM (%)
Write the value in % as a bare number.

These recorded examples may help you get a feel for the data.
Req: If you can, please state the reported Inhibition at 10µM (%) value of CC(C)c1c2cc(-c3ccnc(N[C@H]4CC[C@H](NC5CCOCC5)CC4)n3)ccc2nn1C [LY2857785] .
Resp: 96.5

Req: If you can, please state the reported Inhibition at 10µM (%) value of CS(=O)(=O)N1CCC(NC(=O)c2[nH]ncc2NC(=O)c2c(Cl)cccc2Cl)CC1 [NVP-LCQ195] .
Resp: 99.2

Req: If you can, please state the reported Inhibition at 10µM (%) value of CC(C)c1cnn2c(NCc3ccccc3-n3cccn3)nc(OC3CCCNC3)nc12 (stereo not drawn) [LDC4297] .
Resp: 27.5

New cases:
Req: If you can, please state the reported Inhibition at 10µM (%) value of CN1CCC(c2c(O)cc(O)c3c(=O)cc(-c4ccccc4Cl)oc23)C1CO (stereo not drawn) [P276-00] .
Resp: 83.0

Req: If you can, please state the reported Inhibition at 10µM (%) value of CNc1nc(C)c(-c2nc(Nc3cccc(S(N)(=O)=O)c3)ncc2F)s1 [CDKI-73] .
Resp: 99.1

Req: If you can, please state the reported Inhibition at 10µM (%) value of CCn1cnc2c(Nc3cccc(Cl)c3)nc(N[C@@H]3CCCC[C@@H]3N)nc21 [CGP74514A] .
Resp: 58.7

* * *

# target: CDK10/Cyclin L2 (Homo sapiens, UniProt Q15131)
# Sequence (Q15131 whole entry): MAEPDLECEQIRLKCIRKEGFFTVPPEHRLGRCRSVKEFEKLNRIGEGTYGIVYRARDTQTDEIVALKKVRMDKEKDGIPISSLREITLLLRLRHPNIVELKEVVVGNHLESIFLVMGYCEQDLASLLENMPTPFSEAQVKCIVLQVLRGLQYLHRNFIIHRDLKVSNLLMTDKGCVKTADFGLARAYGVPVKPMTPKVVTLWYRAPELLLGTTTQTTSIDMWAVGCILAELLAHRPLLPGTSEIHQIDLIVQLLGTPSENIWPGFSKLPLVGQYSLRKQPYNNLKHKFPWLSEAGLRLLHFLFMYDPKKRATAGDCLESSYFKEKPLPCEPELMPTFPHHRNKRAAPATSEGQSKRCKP
# test: NanoBRET live-cell target engagement, CDK10-NanoLuc/Cyclin L2 in HEK-293
# reported.conditions: read-out: Inhibition at 10µM (%), CDK10/L2; experiment 1
Tag: YES if measured inhibition at 10 µM is not below 40%, NO if it is.

Req: Hello, I need to know if CC(C)N1CCN(c2ccc(Nc3ncc4cc5n(c4n3)C3(CCCCC3)CNC5=O)nc2)CC1 has measured inhibition at 10 µM not below 40%. Thanks!
Resp: NO

Req: Hello, I need to know if CNC(=O)c1nn(C)c2c1C(C)(C)Cc1cnc(Nc3ccc(N4CCN(C)CC4)cc3)nc1-2 has measured inhibition at 10 µM not below 40%. Thanks!
Resp: NO

Req: Hello, I need to know if COC1CN(C(=O)c2ccc3c(N)ncc(-c4ccc(-c5cnn(C)c5)cc4)c3n2)C1 has measured inhibition at 10 µM not below 40%. Thanks!
Resp: NO

Req: Hello, I need to know if CC(C)(C)c1nc(-c2cccc(NS(=O)(=O)c3c(F)cccc3F)c2F)c(-c2ccnc(N)n2)s1 has measured inhibition at 10 µM not below 40%. Thanks!
Resp: NO

Req: Hello, I need to know if COc1ccc(F)cc1-c1cc(NC(=O)C2CCCNC2)ncc1Cl (centres unmarked) has measured inhibition at 10 µM not below 40%. Thanks!
Resp: YES

Req: Hello, I need to know if CN1CC[C@H](c2c(O)cc(O)c3c(=O)cc(-c4ccccc4Cl)oc23)[C@H](O)C1 has measured inhibition at 10 µM not below 40%. Thanks!
Resp: YES

Req: Hello, I need to know if COc1ccccc1-c1cc(Nc2cccc(CS(N)(=O)=O)c2)ncn1 has measured inhibition at 10 µM not below 40%. Thanks!
Resp: NO

Req: Hello, I need to know if NS(=O)(=O)c1ccc(Nc2nc(OCC3CCCCC3)c3nc[nH]c3n2)cc1 has measured inhibition at 10 µM not below 40%. Thanks!
Resp: YES

* * *

inhibition at 10 µM values for the compounds below.
# target: CDK7 (Homo sapiens, UniProt P50613)
# Sequence (P50613 whole entry): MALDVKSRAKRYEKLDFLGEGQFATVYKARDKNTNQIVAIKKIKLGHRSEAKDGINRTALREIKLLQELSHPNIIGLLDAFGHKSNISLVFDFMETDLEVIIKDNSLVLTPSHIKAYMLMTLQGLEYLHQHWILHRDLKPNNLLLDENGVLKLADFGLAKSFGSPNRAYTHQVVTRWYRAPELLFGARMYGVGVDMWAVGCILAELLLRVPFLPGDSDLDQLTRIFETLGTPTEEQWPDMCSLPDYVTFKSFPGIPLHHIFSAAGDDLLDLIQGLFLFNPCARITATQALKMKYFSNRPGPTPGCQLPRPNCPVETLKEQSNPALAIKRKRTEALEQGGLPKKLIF
# test: NanoBRET live-cell target engagement, NanoLuc-CDK7 in HEK-293
# Type: binding
# reported.conditions: 10µM; independent experiment 1; read-out: CDK7 Inhibition at 10µM (%)
Write the value in % as a bare number.

Req: Any idea what inhibition at 10 µM came out for CC(C)[C@H](CO)Nc1nc(Nc2ccc(C(=O)O)c(Cl)c2)c2ncn(C(C)C)c2n1 [Purvalanol B] on CDK7 (Homo sapiens, UniProt P50613)?
Resp: -0.361

Req: Any idea what inhibition at 10 µM came out for CN1CCN(c2ccc(Nc3ncc4cc5n(c4n3)C3(CCCCC3)CNC5=O)nc2)CC1 [Trilaciclib] on CDK7 (Homo sapiens, UniProt P50613)?
Resp: -3.8

Req: Any idea what inhibition at 10 µM came out for CC(=O)c1c(C)c2cnc(Nc3ccc(N4CCNCC4)cn3)nc2n(C2CCCC2)c1=O [Palbociclib] on CDK7 (Homo sapiens, UniProt P50613)?
Resp: 28.4

New cases:
Req: Any idea what inhibition at 10 µM came out for CN1C/C=C/CCOc2cccc(c2)-c2ccnc(n2)Nc2cccc(c2)C1 [SB1317] on CDK7 (Homo sapiens, UniProt P50613)?
Resp: 97.5
